System: Bifidobacterium longum
assay summary: Antibacterial activity against gut Bifidobacterium longum HM-846 assessed as reduction in bacterial growth measured after 48 hrs by CLSI based broth microdilution method
Type: organism-based
endpoint label: MIC (µg/mL)
Give bare numbers, in µg/mL.

Below, 2 molecules whose answers are already recorded.
smiles code | unit descriptor | MIC
CN[C@H](CC(C)C)C(=O)N[C@H]1C(=O)N[C@@H](CC(N)=O)C(=O)N[C@H]2C(=O)N[C@H]3C(=O)N[C@H](C(=O)N[C@H](C(=O)O)c4cc(O)cc(O)c4-c4cc3ccc4O)[C@H](O)c3ccc(c(Cl)c3)Oc3cc2cc(c3O[C@@H]2O[C@H](CO)[C@@H](O)[C@H](O)[C@H]2O[C@H]2C[C@](C)(N)[C@H](O)[C@H](C)O2)Oc2ccc(cc2Cl)[C@H]1O | µg/mL | 0.25
O=C(Nc1ncco1)c1cc(Oc2cccc(OC(F)(F)F)c2)ccn1 | µg/mL | 16

Next:
# get_value(readout= MIC, system= Bifidobacterium longum) for Cc1ncc([N+](=O)[O-])n1CCO
1
